Kindly supply the reported protein stability index values for the records listed here.
B1: ZNF75A (parent)
chain: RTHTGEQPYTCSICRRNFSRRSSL

# Variants of: B1
# Assay overview: protein stability index of a GFP-peptide fusion (GPS, HEK-293T) (PSI 1-6); higher = more stable;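 also: lentivirally expressed fusions sorted by FACS into six bins by GFP to DsRed ratio, PSI derived from sequencing read proportions per bin multiplied by bin number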
# Condition set: c terminus: a fixed tail appended
Number only, please.

// field: protein stability index; key: F18E ; value = 1.74

Y9S has a reported protein stability index of 2.55

Recorded result, Q7E , protein stability index: 3.43

Looking up C11S , I found its protein stability index recorded as 3.86

The recorded protein stability index for F18I is 2.28

// F18C : protein stability index value = 2.57

Reported protein stability index of F18T : 2.28

// field: protein stability index; key: E6L ; value = 2.52

C11R has a reported protein stability index of 3.74

Form field protein stability index, entry N17A : 3.22

S12A yielded protein stability index of 2.21

protein stability index recorded for this variant, N17G , is 2.75

In plain terms, S23W has a documented protein stability index of 2.34

In plain terms, Q7N has a documented protein stability index of 2.6

The reported value for C11T in terms of protein stability index is 4.58

protein stability index for C11W is 3.77

Looking up L24G , I see its protein stability index listed as 3.1

Value of measured protein stability index for the entry C11A : 3.92

Briefly, protein stability index measured for G5W : 2.55

Lab note: R15K gave protein stability index of 2.86

The recorded protein stability index for T10E is 2.37

// protein stability index lookup, variant = T10I , result: 3.52

The variant listed as H3P shows protein stability index equal to 3.17

// sample N17Y , its protein stability index was 2.63

The variant identified as I13V registered its protein stability index at 3.18

response.value for Q7L (field: protein stability index) = 2.7

Form: variant = S19H ; protein stability index = 2.62

GET /value?item= S19I &field=protein stability index returns 3.39

L24E has a reported protein stability index of 4.02

Input Y9P . Output protein stability index: 2.69

Kindly note the recorded protein stability index for R15C , which is 2

Summary for this variant, H3L : protein stability index is 2.75

Value of protein stability index reported for the variant T2Y is 2.81

# protein stability index of R1M = 2.33

What the record says about Q7I : protein stability index is 2.63

Given item T4W , the value recorded as its protein stability index is 2.1

Record summary for S23G : reported protein stability index = 2.76

// recorded protein stability index for C14L : 3.5

Value of measured protein stability index for the entry T2D : 3.02

The reported value for R1S in terms of protein stability index is 3.07

Reported protein stability index of I13P : 3.44

Noted for L24P : its protein stability index reads 3.82

Noted for I13M : its protein stability index reads 2.21

Documented protein stability index of C14N : 4.11

The value of protein stability index measured for the variant C11L turned out to be 3.61

Notebook: T4Y , protein stability index read as 3.04
